# reported Growth Rate; entries follow
# Test system: U2OS
# assay.remarks: Incucyte cell viability with U2OS; note: unitless GR value; below 1 slowed growth and below 0 cell loss
# Assay type: toxicity, cell-based
# condition.label: human, 24 h, 10 µM, compound concentration 10 uM, replicate number 1

>  <compound>
CCCCC/C=C/C=C1/C(=O)C=C[C@@H]1C/C=C\CCCC(=O)O

>  <Growth Rate>
0.68

$$$$
>  <compound>
O=C(CCCCCCc1ccccc1)c1ncc(-c2ccccn2)o1

>  <Growth Rate>
0.87

$$$$
>  <compound>
C[C@H]1CN(C2COC2)CCN1c1ccc(Nc2cc(-c3ccnc(N4CCn5c(cc6c5CC(C)(C)C6)C4=O)c3CO)cn(C)c2=O)nc1

>  <Growth Rate>
0.81

$$$$
>  <compound>
CCCn1cc(-c2cc(C3C(=O)N(CC)c4ccc(C(F)(F)F)cc4N(c4ccccc4)C3=O)cc(OC)c2O)cn1 (stereo not drawn)

>  <Growth Rate>
0.91

$$$$
>  <compound>
O=C1C[C@@H]2OCC=C3CN4CC[C@]56c7ccccc7N1[C@H]5[C@H]2[C@H]3C[C@H]46

>  <Growth Rate>
0.87

$$$$
>  <compound>
CC(C)NC(=O)[C@H]1CCC[C@H]1Nc1nc(Nc2ccc(CN(C)C)cc2)ncc1Br.Cl

>  <Growth Rate>
0.32

$$$$
>  <compound>
COc1c(NC(=O)c2cc3cccc(Oc4ccnc(C(=O)N5CCN(C)CC5)c4)c3n2C)cc(C(C)(C)C)cc1NS(C)(=O)=O

>  <Growth Rate>
0.84

$$$$
>  <compound>
CC(=O)c1ccc2c(c1)/C(=C(/NC1CCN(C)CC1)c1ccc3c(c1)OCO3)C(=O)N2

>  <Growth Rate>
0.21

$$$$

###

# Test system: Fibroblast
# assay.remarks: Incucyte cell viability with human fibroblast; note: unitless GR value; below 1 slowed growth and below 0 cell loss
# Assay type: toxicity, cell-based
# condition.label: 18 h, 10 µM, compound concentration 10 uM, replicate number 1
# reported Growth Rate; entries follow
quantity.name: Growth Rate

>  <molecule.smiles>
COCc1nc2cnc3cc(-c4c(C)noc4C)c(OC[C@H]4CCNC4)cc3c2n1[C@H](C)c1ccccc1

>  <assay.value>
0.73

$$$$
>  <molecule.smiles>
C[C@@H]1C[C@H](N)C[C@H](c2ccncc2NC(=O)c2ccc(F)c(-c3c(F)cccc3F)n2)C1

>  <assay.value>
0.87

$$$$
>  <molecule.smiles>
Cc1nn(C)c(COc2ccc(N3CCN(S(=O)(=O)N(C)C)CC3)cc2)c1-c1cccc2c(CCCOc3cccc4ccccc34)c(C(=O)O)n(CCN3CCOCC3)c12

>  <assay.value>
0.58

$$$$

###

# reported Growth Rate; entries follow
# System: U2OS
# assay.remarks: Incucyte cell viability with U2OS; note: unitless GR value; below 1 slowed growth and below 0 cell loss
# Format: toxicity, cell-based
# condition.label: human, 18 h, 10 µM, compound concentration 10 uM, replicate number 2

>  <compound>
Cc1cc(SCc2sc(-c3ccc(C(F)(F)F)cc3)nc2C)ccc1OCC(=O)O [GW501516]

>  <Growth Rate>
0.92

$$$$
>  <compound>
O=C1NC(c2cccc([N+](=O)[O-])c2)=CCN1c1ccccc1O [ICILLIN]

>  <Growth Rate>
0.96

$$$$
>  <compound>
O=C(Nc1c[nH]nc1-c1nc2cc(CN3CCOCC3)ccc2[nH]1)NC1CC1 [AT-9283]

>  <Growth Rate>
0.14

$$$$
>  <compound>
CC(C)S(=O)(=O)c1ccccc1Nc1nc(N[C@@H]2CCCN(CCCCCCCNC(=O)COc3cccc4c3C(=O)N(C3CCC(=O)N(C)C3=O)C4=O)C2)ncc1Cl (stereo partly drawn)

>  <Growth Rate>
-0.14

$$$$
>  <compound>
CCN1C(=O)C(c2cccc(C(=O)O)c2)C(=O)N(c2ccccc2)c2cc(C(F)(F)F)ccc21 (stereo not drawn)

>  <Growth Rate>
0.95

$$$$
>  <compound>
N[C@@H](Cn1cc(F)c(=O)[nH]c1=O)C(=O)O

>  <Growth Rate>
0.8

$$$$
>  <compound>
CCCCNc1ncc2c(-c3ccc(CN4CCN(C)CC4)cc3)cn([C@H]3CC[C@H](O)CC3)c2n1

>  <Growth Rate>
-0.13

$$$$
>  <compound>
COc1ccccc1Nc1nc(-c2nn(Cc3c(F)cc(OCCCO)cc3F)c3ccccc23)ncc1OC

>  <Growth Rate>
1

$$$$

###

# Tested on: U2OS
# assay.remarks: Incucyte cell viability with U2OS; note: unitless GR value; below 1 slowed growth and below 0 cell loss
# Type: toxicity, cell-based
# condition.label: human, 0 h, 10 µM, compound concentration 10 uM, replicate number 2

>  <compound>
Cc1ccc(C)c(OCCCC(C)(C)C(=O)O[C@@H]2O[C@H](C(=O)O)[C@@H](O)[C@H](O)[C@H]2O)c1

>  <experimental.target>
U2OS

>  <Growth Rate>
-0.96

$$$$
>  <compound>
CCC(C)(C)NC(=NC#N)Nc1cccnc1

>  <experimental.target>
U2OS

>  <Growth Rate>
-0.68

$$$$
>  <compound>
C[C@@H](Cn1c(=O)[nH]/c(=N\c2ccc(Oc3ccccn3)cc2)n(Cc2ccc(Cl)cc2)c1=O)C(=O)O

>  <experimental.target>
U2OS

>  <Growth Rate>
-0.83

$$$$
>  <compound>
COc1cc([N+](=O)[O-])ccc1NC(=O)c1ccccc1O

>  <experimental.target>
U2OS

>  <Growth Rate>
-0.67

$$$$
>  <compound>
CC(=O)Nc1c(F)cc(C(=O)N[C@H]2CC[C@H](O)CC2)cc1O[C@@H](C)c1ccccc1 [GSK046]

>  <experimental.target>
U2OS

>  <Growth Rate>
0.83

$$$$
>  <compound>
Cc1cccc([C@H]2CC[C@@H](N3CCN(c4cccnc4)CC3)CC2)c1.O=C(O)C(F)(F)F.O=C(O)C(F)(F)F

>  <experimental.target>
U2OS

>  <Growth Rate>
-0.63

$$$$
>  <compound>
CN1CCN(c2nc(C3=C(c4c[nH]c5ccccc45)C(=O)NC3=O)c3ccccc3n2)CC1 [SOTRASTAURIN]

>  <experimental.target>
U2OS

>  <Growth Rate>
-0.29

$$$$
>  <compound>
COc1cc(N)c(Cl)cc1C(=O)NC1CN2CCC1CC2.Cl (centres undefined)

>  <experimental.target>
U2OS

>  <Growth Rate>
-0.2

$$$$
>  <compound>
CCc1nc(-c2cccc(C)c2)c(-c2ccnc(NC(=O)c3ccccc3)c2)s1 [TAK-715]

>  <experimental.target>
U2OS

>  <Growth Rate>
0.2

$$$$

###

# Tested on: Fibroblast
# assay.remarks: Incucyte cell viability with human fibroblast; note: unitless GR value; below 1 slowed growth and below 0 cell loss
# Format: toxicity, cell-based
# condition.label: 24 h, 10 µM, compound concentration 10 uM, replicate number 2
quantity.name: Growth Rate

>  <molecule.smiles>
CC(C)(C)c1cnc(CSc2cnc(NC(=O)C3CCNCC3)s2)o1

>  <assay.value>
-0.26

$$$$
>  <molecule.smiles>
COc1ccccc1-c1cc(Nc2cccc(CS(N)(=O)=O)c2)ncn1

>  <assay.value>
0.59

$$$$
>  <molecule.smiles>
Cc1nnc2n1-c1sc3c(c1C(c1ccccc1Cl)=NC2)C[C@H](C(=O)N1CCOCC1)C3

>  <assay.value>
0.94

$$$$
>  <molecule.smiles>
O=C(N[C@H]1CN2CCC1CC2)c1ccc(Cl)cc1

>  <assay.value>
0.81

$$$$
>  <molecule.smiles>
c1ccc(Cn2c(N3CCNCC3)nc3ccccc32)cc1

>  <assay.value>
0.68

$$$$

###

# Tested on: HEK-293T
# assay.remarks: Incucyte cell viability with HEK293T; note: unitless GR value; below 1 slowed growth and below 0 cell loss
# Assay type: toxicity, cell-based
# condition.label: human, 24 h, 10 µM, compound concentration 10 uM, replicate number 2
# reported Growth Rate; entries follow
quantity.name: Growth Rate

>  <molecule.smiles>
COc1ccc(Cl)cc1[C@]1(F)C(=O)Nc2cc(C(F)(F)F)ccc21

>  <assay.value>
0.47

$$$$
>  <molecule.smiles>
Cl.Cl.c1ccc2c(-c3cnn4cc(-c5ccc(N6CCNCC6)cc5)cnc34)ccnc2c1

>  <assay.value>
-0.38

$$$$
>  <molecule.smiles>
O=C(NCCN1CCOCC1)c1ccc2nn(CCOc3ccc(Cl)cc3)cc2c1

>  <assay.value>
0.61

$$$$
>  <molecule.smiles>
Cn1c(=O)n(CCCO)c(=O)c2c1nc(Oc1cccc(Cl)c1)n2Cc1ccc(Cl)cc1

>  <assay.value>
0.83

$$$$
>  <molecule.smiles>
O=C(Nc1ccc(C(O)(C(F)(F)F)C(F)(F)F)cc1)c1ccc(C(F)(F)F)cc1

>  <assay.value>
0.15

$$$$
>  <molecule.smiles>
Clc1ccccc1C(c1ccccc1)(c1ccccc1)n1ccnc1

>  <assay.value>
0.41

$$$$
>  <molecule.smiles>
CC(C)(C)c1cc(NC(=O)c2csc(Nc3ccccn3)n2)no1

>  <assay.value>
0.2

$$$$
>  <molecule.smiles>
[2H]C([2H])([2H])NC(=O)c1nnc(NC(=O)C2CC2)cc1Nc1cccc(-c2ncn(C)n2)c1OC

>  <assay.value>
0.76

$$$$
>  <molecule.smiles>
NC(=O)c1cc2c(-c3ccc(C(=O)NCc4ccnc(Cl)c4)s3)cccc2s1

>  <assay.value>
-0.09

$$$$
